Method notes: Inhibition of Saccharomyces cerevisiae alpha-glucosidase using p-nitrophenyl-alpha-D-glucopyranoside as substrate preincubated for 15 mins followed by substrate addition measured after 30 mins by spectrophotometric method
Readout kind: IC50 (µM)

Completed entries (count: 2):
Structure smiles string: Cc1ccc(NC(=O)CSc2nnc(-c3ccccc3)c(-c3ccccc3)n2)c(C)c1
IC50 [µM]: 67.2
//
Structure smiles string: O=C(CSc1nnc(-c2ccccc2)c(-c2ccccc2)n1)Nc1ccc(Cl)cc1Cl
IC50 [µM]: 36.8

[P] Cc1ccccc1NC(=O)CSc1nnc(-c2ccccc2)c(-c2ccccc2)n1
[Q] CCOc1ccc(NC(=O)CSc2nnc(-c3ccccc3)c(-c3ccccc3)n2)cc1
[R] O=C(CSc1nnc(-c2ccccc2)c(-c2ccccc2)n1)Nc1ccc([N+](=O)[O-])cc1
[S] COc1ccc(NC(=O)CSc2nnc(-c3ccccc3)c(-c3ccccc3)n2)c([N+](=O)[O-])c1
Sort ascending by IC50. # the answer lists labels in the order requested
R, Q, S, P
(R: 12.5 µM, Q: 26.3 µM, S: 47 µM, P: 72.7 µM)
